From: patent US20220233661A1

test system: anti-peptide IgG in plasma; experiment: Test Example 4: peptide-specific IgG titer pre and post vaccination, bead-based multiplexed Luminex assay; assay type: in vivo, human; conditions: number of vaccinated patients with positive IgG response
measuredQuantity: Post vaccination IgG: (positive) patients

INSERT INTO measurements (sequence, recordedresult) VALUES
  ('LYCESVHNF (listed as Homo sapiens) [PAP-213]', '279(196)'),
  ('ILEQSGEWWK (listed as Homo sapiens) [Lck-90]', '502(187)'),
  ('KLVERLGAA (listed as Homo sapiens) [Lck-246]', '366(169)'),
  ('DVWSFGILL (listed as Homo sapiens) [Lck-422]', '92(20)');

We next turn to a different sequence, shown below.
Which Post vaccination IgG: (positive) patients is listed for DYSARWNEI (listed as Homo sapiens) [SART2-93] ?
1137(362)
